# assayDetails: Toxicity in RBC (unknown origin) assessed as hemolytic activity
# Type: cell-based, Erythrocyte
# testParameters: red blood cells
attributeMeasured: HC50

{"smiles": "COC(=O)CC[C@@H](C)[C@H]1CC[C@H]2[C@@H]3CC[C@@H]4C[C@H](OC(=O)C[N+]5(C)CCCCC5)CC[C@]4(C)[C@H]3CC[C@]12C.[Cl-]", "measValue": "> 1 mM"}

* * *

# assayDetails: Selectivity ratio of human HCT116 cells over CHO cells
# Format: cell-based
# testParameters: Chinese hamster (CHO), HCT116 cells versus CHO cells
attributeMeasured: selectivity ratio

{"smiles": "COC(=O)CC[C@@H](C)[C@H]1CC[C@H]2[C@@H]3CC[C@@H]4C[C@H](OC(=O)C[N+]5(C)CCCCC5)CC[C@]4(C)[C@H]3CC[C@]12C.[Cl-]", "measValue": 3}

* * *

# Tested on: HCT-116
# assayDetails: Cytotoxicity against human HCT116 cells assessed as cell viability after 48 hrs by MTT assay
# Format: functional, cell-based
# testParameters: HCT-116, 48 h
pIC50: −log10 of the molar value.

{"smiles": "COC(=O)CC[C@@H](C)[C@H]1CC[C@H]2[C@@H]3CC[C@@H]4C[C@H](OC(=O)C[N+]5(C)CCCCC5)CC[C@]4(C)[C@H]3CC[C@]12C.[Cl-]", "pIC50": 4.93}
{"smiles": "COC(=O)CC[C@@H](C)[C@H]1CC[C@H]2[C@@H]3CC[C@@H]4C[C@H](OC(=O)C[N+]5(C)CCCC5)CC[C@]4(C)[C@H]3CC[C@]12C.[Cl-]", "pIC50": 4.75}
{"smiles": "COC(=O)CC[C@@H](C)[C@H]1CC[C@H]2[C@@H]3CC[C@@H]4C[C@H](OC(=O)CN)CC[C@]4(C)[C@H]3CC[C@]12C", "pIC50": 4.44}
{"smiles": "COC(=O)CC[C@@H](C)[C@H]1CC[C@H]2[C@@H]3CC[C@@H]4C[C@H](OC(=O)C[n+]5ccc(N(C)C)cc5)CC[C@]4(C)[C@H]3CC[C@]12C.[Cl-]", "pIC50": 4.88}
{"smiles": "COC(=O)CC[C@@H](C)[C@H]1CC[C@H]2[C@@H]3CC[C@@H]4C[C@H](OC(=O)CN5CCSCC5)CC[C@]4(C)[C@H]3CC[C@]12C.Cl", "pIC50": 4.06}

* * *

Measured Retention_time of individual entries
# assayDetails: Retention time of the compound by HPLC method
# Type: physicochemical

{"smiles": "COC(=O)CC[C@@H](C)[C@H]1CC[C@H]2[C@@H]3CC[C@@H]4C[C@H](OC(=O)CN5CCOCC5)CC[C@]4(C)[C@H]3CC[C@]12C.Cl", "Retention_time (min)": 24.17}
{"smiles": "COC(=O)CC[C@@H](C)[C@H]1CC[C@H]2[C@@H]3CC[C@@H]4C[C@H](OC(=O)CN5CCSCC5)CC[C@]4(C)[C@H]3CC[C@]12C.Cl", "Retention_time (min)": 28.63}
{"smiles": "COC(=O)CC[C@@H](C)[C@H]1CC[C@H]2[C@@H]3CC[C@@H]4C[C@H](OC(=O)C[N+]5(C)CCCCC5)CC[C@]4(C)[C@H]3CC[C@]12C.[Cl-]", "Retention_time (min)": 8.12}
{"smiles": "COC(=O)CC[C@@H](C)[C@H]1CC[C@H]2[C@@H]3CC[C@@H]4C[C@H](OC(=O)C[n+]5ccc(N(C)C)cc5)CC[C@]4(C)[C@H]3CC[C@]12C.[Cl-]", "Retention_time (min)": 7.9}
{"smiles": "COC(=O)CC[C@@H](C)[C@H]1CC[C@H]2[C@@H]3CC[C@@H]4C[C@H](OC(=O)C[N+]5(C)CCCC5)CC[C@]4(C)[C@H]3CC[C@]12C.[Cl-]", "Retention_time (min)": 8.23}
{"smiles": "COC(=O)CC[C@@H](C)[C@H]1CC[C@H]2[C@@H]3CC[C@@H]4C[C@H](OC(=O)C[N+]56CCN(CC5)CC6)CC[C@]4(C)[C@H]3CC[C@]12C.[Cl-]", "Retention_time (min)": 7.98}
{"smiles": "COC(=O)CC[C@@H](C)[C@H]1CC[C@H]2[C@@H]3CC[C@@H]4C[C@H](OC(=O)C[n+]5ccccc5)CC[C@]4(C)[C@H]3CC[C@]12C.[Cl-]", "Retention_time (min)": 7.84}
{"smiles": "COC(=O)CC[C@@H](C)[C@H]1CC[C@H]2[C@@H]3CC[C@@H]4C[C@H](OC(=O)C[N+](C)(C)C)CC[C@]4(C)[C@H]3CC[C@]12C.[Cl-]", "Retention_time (min)": 7.94}
